These entries and their values trace back to ChEMBL document CHEMBL5385869.

Entries below carry reported IC50 on Enoyl-[acyl-carrier-protein] reductase [NADH] (Mycobacterium tuberculosis).
Sequence (P9WGR1 whole entry): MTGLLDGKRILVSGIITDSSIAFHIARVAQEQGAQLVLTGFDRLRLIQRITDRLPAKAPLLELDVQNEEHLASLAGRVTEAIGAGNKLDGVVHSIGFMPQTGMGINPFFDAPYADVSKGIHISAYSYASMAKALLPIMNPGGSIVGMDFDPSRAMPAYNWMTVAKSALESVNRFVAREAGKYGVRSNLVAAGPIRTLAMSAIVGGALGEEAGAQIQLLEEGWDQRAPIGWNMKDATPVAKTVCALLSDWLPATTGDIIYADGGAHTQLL
Write the value in µM as a bare number.

API: value(readout= IC50, system= Enoyl-[acyl-carrier-protein] reductase [NADH] (Mycobacterium tuberculosis), query= Cc1cc(Nc2ccc(-n3cccn3)cc2)c2cc(Br)ccc2n1 ) 4.85

Tell me reported IC50 for Cc1cc(Nc2ccc(N3CCCCC3)cc2)c2cc(N(C)C)ccc2n1 , tested with Enoyl-[acyl-carrier-protein] reductase [NADH] (Mycobacterium tuberculosis). 20

Given the entry CCOC(=O)c1ccc2nc(C)cc(Nc3ccc(C(=O)N4CCCC4)cc3)c2c1 , what IC50 was observed with Enoyl-[acyl-carrier-protein] reductase [NADH] (Mycobacterium tuberculosis)? 44.5

Please state recorded IC50 (tested on Enoyl-[acyl-carrier-protein] reductase [NADH] (Mycobacterium tuberculosis)) of Cc1ccc2nc(C)cc(Nc3ccc(N4CCCCC4)cc3)c2c1 17.2

Report IC50 for Cc1cc(Nc2ccc(N3CCCCC3)cc2)c2cc(Cl)ccc2n1 tested on Enoyl-[acyl-carrier-protein] reductase [NADH] (Mycobacterium tuberculosis). 1.1

Form entry - test system: Enoyl-[acyl-carrier-protein] reductase [NADH] (Mycobacterium tuberculosis); read-out: IC50; compound: Cc1cc(Nc2ccc(N3CCCCC3)cc2)c2cc([N+](=O)[O-])ccc2n1 18.6

For the record CCOc1ccc2nc(C)cc(Nc3ccc(N4CCCCC4)cc3)c2c1 , what value of IC50 is listed for Enoyl-[acyl-carrier-protein] reductase [NADH] (Mycobacterium tuberculosis)? 9.5

Request - read-out IC50 | tested on Enoyl-[acyl-carrier-protein] reductase [NADH] (Mycobacterium tuberculosis) | compound CCCc1ccc(Nc2cc(C)nc3ccc(C(=O)OCC)cc23)cc1 19.6

Please provide the recorded IC50 for CCc1cc(Nc2ccc(N3CCCCC3)cc2)c2cc(Cl)ccc2n1 , tested on Enoyl-[acyl-carrier-protein] reductase [NADH] (Mycobacterium tuberculosis). 2.9

Any idea what IC50 came out for CCOC(=O)c1ccc2nc(C)cc(Nc3ccc(-n4cnc5ccccc54)cc3)c2c1 on Enoyl-[acyl-carrier-protein] reductase [NADH] (Mycobacterium tuberculosis)? 42.1
